Would you mind telling me the reported Percent Effect of each entry?
Test system: Trypanosoma brucei
Procedure summary: Trypanosoma brucei 72 hour study
Format: functional, organism-based
Design: scale not given: in the data most compounds retested in dose-response had high values
Measurement context: 30.3 µM; […]
About 960 (1.5%) of roughly 66,000 compounds showed an effect of 50% or more. Shown is part of a subset that was picked to be rich in strong results.
Lab book: enter the figure in %, no units written.

The recorded Percent Effect for entry "Cc1n[nH]cc1CNC1(c2ccc(F)cc2)CCCC1" equals -110.9

Documented Percent Effect of Cc1ccc2c(c1)CN(C(=O)c1cccnc1)C(CN(C)C)CO2.Cl (stereo unspecified) : -3.741

// recorded Percent Effect for "CCOc1ncccc1C(=O)N1CCC(Nc2ccc(C)nn2)CC1" : 1.842

Lookup result for Cc1nccc(-c2cccc(NCC(=O)N3CCCC(C)C3)c2)n1 (stereo unspecified) ; measured Percent Effect: 89.85

The value of Percent Effect measured for the molecule "O=C(Nc1ccc2c(c1)C(=O)NC2)c1ccc(S(=O)(=O)C(F)(F)F)cc1" turned out to be 11.83

Percent Effect reported for this molecule "O=C(c1cnccn1)N1CCN(c2ccnc3ccsc23)CC1" : -26.37

Input CN1CC(=O)N(c2ccccc2)CC12CCN(C(=O)c1ccnnc1)C2.O=C(O)C(F)(F)F (stereo unspecified) . Output Percent Effect: -13.49

The reported value for "CC[C@H](C)[C@H](N)C(=O)N1CC(=O)c2sc(NCc3ccccc3)nc2C1" in terms of Percent Effect is 35.54

Field Percent Effect (entry Cc1nn(C)c(N(C)C)c1CNC1CCc2c(Cl)cccc21.Cl (stereo unspecified) ) reads 17.67

"COc1ccc(NC(=O)c2cnc(N(C)C3CCCCC3)nc2N)cc1" has a reported Percent Effect of 61

Short answer for Cc1nc(C)n(CC2CCCN2Cc2ccn(-c3ccccc3)n2)n1 (stereo unspecified) : Percent Effect was 99.84

c1ccc(-n2ccc(CN3CCCC3Cn3cccn3)n2)cc1 (stereo unspecified) yielded Percent Effect of 99.68

Short answer for CCc1cnc(CN(C)C2CCN(CCn3cc(C#N)cn3)C2)o1 (stereo unspecified) : Percent Effect was -0.7137

Entry under test: "O=C(Nc1ccncc1)N(CCO)Cc1ccsc1" . Its Percent Effect was 7.021

Reported Percent Effect for O=C(NCC1CC1)C1CCC2(CCN(C(=O)c3cccnc3)CC2)O1.O=C(O)C(F)(F)F (stereo unspecified) was -34.45

The molecule listed as "Cc1cc(C)n(-c2ccc(CNCc3cccc(C#N)c3)cn2)n1" has a reported Percent Effect of 62.16

Just so you know, measured Percent Effect for COc1ccc(C2CN(c3nc(C)cc(C)n3)CCN2C(C)=O)cc1 (stereo unspecified) came out at 9.247

Lab book: Percent Effect of "Cc1nccc(-c2cccc(NCC(=O)N3CCOCC3)c2)n1" noted as 18.69

Reported Percent Effect of "CN(Cc1cccnc1)[C@@H]1CN(Cc2cnn(C)c2)[C@@H]2CCCO[C@H]12.O=C(O)C(F)(F)F.O=C(O)C(F)(F)F.O=C(O)C(F)(F)F.O=C(O)C(F)(F)F" : -6.057

# Percent Effect (molecule: COc1cccc(C(=O)N2CCc3nc(C4CCCN4)ncc3C2)c1.Cl (stereo unspecified) ) is -17.69

Percent Effect for "COc1cccc(O[C@H]2CCN(c3nc(C)cc(C)n3)CC[C@@H]2O)c1" is -10.89

Documented Percent Effect of "COc1ccc(CC(=O)N2C[C@H]3CN(Cc4ccccn4)C[C@H]3C2)cc1.O=C(O)C(F)(F)F" : -4.643

Reported Percent Effect of "COc1ccc(NC(=O)c2cnc(C3CCN(C)CC3)nc2C)cc1" : -7.704

Note to self: Percent Effect recorded for CC(C)CN1CCCC1c1ccc(C(=O)Nc2ccc3[nH]nnc3c2)s1 (stereo unspecified) was 85.03

Looking up CC(C)CN1CCCC1c1ccc(C(=O)Nc2cccnc2)s1 (stereo unspecified) , I see its Percent Effect listed as 100.5

Summary for this molecule, COc1ccc2c(c1)CN(c1cc(N3CCCC3CO)ncn1)CC2 (stereo unspecified) : Percent Effect is 27.38

Percent Effect for Cl.c1nc(CCC2CCCCN2)cc(N2CCCC2)n1 (stereo unspecified) is -10.52

According to the records, this molecule "COc1ccc2c(c1)CN(c1nc(C)cc(C)n1)CC2" displays Percent Effect of 100.3

So for CCc1nc(-c2cncnc2C2CCCNC2)no1.Cl (stereo unspecified) , the logged Percent Effect turned out to be 10

For this molecule ( CC(=O)N1N=C(c2ccco2)OC1C(=O)N(C)CCc1ccccc1 (stereo unspecified) ), measured Percent Effect is -0.7394

Kindly note the recorded Percent Effect for CCc1noc(C2CCCCN2C(=O)c2cc(C)n(C)n2)n1 (stereo unspecified) , which is -3.284
